Entry source: patent US11040954B1

Measured EC50, listed per entry.
target: CXCR3 (Homo sapiens); construct: host or cells: CHO-K1 (cAMP Hunter CHOK1 CXCR3 Gi cell line); assay: CXCR3 cAMP agonist assay (cAMP Hunter CHOK1 CXCR3 Gi cell line, forskolin-stimulated, HitHunter cAMP detection); assay type: cell-based; details: cAMP Hunter CHOK1 CXCR3 Gi cells, 20 μM forskolin, 30 minutes; read-out: Activity (CXCR3 cAMP agonist assay compound EC50)
REPORTED_METRIC: EC50

• Cc1cc(NC(=O)[C@H](CCN)NC(=O)[C@@H]2Cc3ccccc3CN2C(=O)CCC(=O)N2CCCOCC2)ccc1Cl = < 50 nM
• NC(=O)NCCC[C@H](NC(=O)[C@@H]1Cc2ccccc2CN1C(=O)CCC(=O)c1ccccc1)C(=O)Nc1ccc(Cl)c(Cl)c1 = 50 to 250 nM
• CC1(C)CCCN(C(=O)CCC(=O)N2Cc3ccccc3C[C@H]2C(=O)N[C@@H](CCN2CCC(O)CC2)C(=O)Nc2ccc(Cl)c(Cl)c2F)C1 = < 50 nM
• COc1cc(C)ccc1NC(=O)[C@H](CCN)NC(=O)[C@@H]1Cc2ccccc2CN1C(=O)CCC(=O)c1ccccc1 = 50 to 250 nM
• Cc1cc(NC(=O)[C@H](CCCNC(=N)N)NC(=O)[C@@H]2Cc3ccccc3CN2C(=O)CCC(=O)c2ccccc2)ccc1Cl = < 50 nM
• Cc1cc(NC(=O)[C@H](CCCCN)NC(=O)[C@@H]2Cc3ccccc3CN2C(=O)CCC(=O)c2ccc(F)c(F)c2)ccc1Cl = 250 to 500 nM
• CN1CCN(C(=O)CCC(=O)N2Cc3ccccc3C[C@H]2C(=O)NC2(C(=O)Nc3ccc(Cl)c(Cl)c3F)CCNCC2)CC1 = < 50 nM
• Cc1cccc(NC(=O)[C@H](CCN)NC(=O)[C@@H]2Cc3ccccc3CN2C(=O)CCC(=O)c2ccccc2)c1O = 250 to 500 nM
• NCCCC[C@H](NC(=O)[C@@H]1Cc2ccccc2CN1C(=O)CCC(=O)c1ccccc1)C(=O)Nc1ccc(C(F)(F)F)c(F)c1 = 250 to 500 nM
• O=C(CCC(=O)N1Cc2ccccc2C[C@H]1C(=O)N[C@@H](CCN1CCC(F)(F)C1)C(=O)Nc1ccc2c(c1)CCC2)c1ccccc1 = 250 to 500 nM
• Cc1cc(NC(=O)[C@H](CCN)NC(=O)[C@@H]2Cc3ccccc3CN2C(=O)CCC(=O)N2CCC(O)C2)ccc1Cl (stereo partly shown) = 50 to 250 nM
• NCC[C@H](NC(=O)[C@@H]1Cc2ccccc2CN1C(=O)CCC(=O)c1ccccc1)C(=O)Nc1ccc2c(c1)CCC2 = < 50 nM
• COc1cccc(NC(=O)[C@H](CCCCN)NC(=O)[C@@H]2Cc3ccccc3CN2C(=O)CCC(=O)c2ccccc2)c1 = 250 to 500 nM

###

biological target: CXCR3 (Homo sapiens); construct: host or cells: CHO-K1 (cAMP Hunter CHOK1 CXCR3 Gi cell line); test: CXCR3 cAMP agonist assay (cAMP Hunter CHOK1 CXCR3 Gi cell line, forskolin-stimulated, HitHunter cAMP detection); format: cell-based; conditions: cAMP Hunter CHOK1 CXCR3 Gi cells, 20 μM forskolin, 30 minutes; read-out: Activity (CXCR3 cAMP agonist assay compound EC50)
Listing of entries alongside the reported EC50.
REPORTED_METRIC: EC50

- Cc1cc(NC(=O)[C@H](CCN)NC(=O)[C@@H]2Cc3ccccc3CN2C(=O)CCC(=O)N(C)Cc2ccccc2)ccc1Cl [Compound 12-16]: > 0.5 µM
- Cc1cc(NC(=O)[C@H](CCN)NC(=O)[C@@H]2Cc3ccccc3CN2C(=O)CCC(=O)N2CCN(C)C2)ccc1Cl [Compound 12-145]: < 0.05 µM
- Cc1cc(NC(=O)[C@H](CCN)NC(=O)[C@@H]2Cc3ccccc3CN2C(=O)CCC(=O)N2CC[C@H](N(C)C)C2)ccc1Cl [Compound 12-49]: < 0.05 µM
- Cc1cc(NC(=O)[C@H](CCN)NC(=O)[C@@H]2Cc3ccccc3CN2C(=O)CCC(=O)N2CCOCC2)ccc1Cl [Compound 10-2]: 0.05 to 0.25 µM
- Cc1ccc(F)c(NC(=O)[C@H](CCN)NC(=O)[C@@H]2Cc3ccccc3CN2C(=O)CCC(=O)c2ccccc2)c1 [Compound 2-33]: < 0.05 µM
- Cc1cc(NC(=O)[C@H](CCN)NC(=O)[C@@H]2Cc3ccccc3CN2C(=O)CCC(=O)N2CCC(C)(C)CC2)ccc1Cl [Compound 12-28]: < 0.05 µM
- CS(=O)(=O)C1CCN(C(=O)CCC(=O)N2Cc3ccccc3C[C@H]2C(=O)N[C@@H](CCN)C(=O)Nc2ccc(Cl)c(Cl)c2F)CC1 [Compound 15-13]: > 0.5 µM
- Cc1cc(NC(=O)[C@H](CC(N)=O)NC(=O)[C@@H]2Cc3ccccc3CN2C(=O)CCC(=O)c2ccccc2)ccc1Cl [Compound 3-12]: 0.05 to 0.25 µM
- NCC[C@H](NC(=O)[C@@H]1Cc2ccccc2CN1C(=O)CCC(=O)c1ccccc1)C(=O)NC1CCc2ccccc2C1 (stereo partly shown) [Compound 2-81]: 0.05 to 0.25 µM
- CC(=O)N1CCN(C(=O)CCC(=O)N2Cc3ccccc3C[C@H]2C(=O)N[C@@H](CCN)C(=O)Nc2ccc(Cl)c(C)c2)CC1 [Compound 12-106]: 0.25 to 0.5 µM
- Cc1c(NC(=O)[C@H](CCN)NC(=O)[C@@H]2Cc3ccccc3CN2C(=O)CCC(=O)c2ccccc2)ccc(Cl)c1Cl [Compound 2-15]: < 0.05 µM
- Cc1cc(NC(=O)[C@H](CCN)NC(=O)[C@@H]2Cc3ccccc3CN2C(=O)CCC(=O)NCCC(C)(C)C)ccc1Cl [Compound 12-2]: < 0.05 µM
- CC1(C)CCCN(C(=O)CCC(=O)N2Cc3ccccc3C[C@H]2C(=O)N[C@@H](CCN)C(=O)Nc2ccc3c(c2)CCC3)C1 [Compound 10-7]: < 0.05 µM

###

Target: CXCR3 (Homo sapiens, UniProt P49682)
Construct: host or cells: CHO-K1 (cAMP Hunter CHOK1 CXCR3 Gi cell line)
Sequence (P49682 whole entry): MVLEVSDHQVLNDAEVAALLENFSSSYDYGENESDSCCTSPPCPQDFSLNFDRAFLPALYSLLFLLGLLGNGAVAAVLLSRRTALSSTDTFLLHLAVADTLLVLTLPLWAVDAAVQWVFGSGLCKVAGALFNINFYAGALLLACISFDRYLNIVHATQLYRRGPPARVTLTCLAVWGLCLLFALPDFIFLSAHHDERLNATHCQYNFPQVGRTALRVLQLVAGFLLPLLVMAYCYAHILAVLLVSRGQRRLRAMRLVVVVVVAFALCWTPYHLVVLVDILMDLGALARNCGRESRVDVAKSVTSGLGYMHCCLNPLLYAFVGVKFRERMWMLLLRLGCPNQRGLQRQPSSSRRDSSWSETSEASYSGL
Assay: CXCR3 cAMP agonist assay (cAMP Hunter CHOK1 CXCR3 Gi cell line, forskolin-stimulated, HitHunter cAMP detection)
Format: cell-based
Settings: cAMP Hunter CHOK1 CXCR3 Gi cells, 20 μM forskolin, 30 minutes; read-out: Activity (CXCR3 cAMP agonist assay compound EC50)
Description: The cAMP Hunter™ CHOK1 CXCR3 Gi cell line was purchased from DiscoveRx. Cells were seeded into a 96-well white assay plate at 50,000 cells/well/94 μl assay buffer (Hank's Buffered Saline Solution, 10 mM HEPES, 0.1% fatty acid-free BSA, pH 7.4) and immediately assayed in suspension. […] Direct detection of cAMP was carried out using the DiscoveRx HitHunter cAMP kit according to manufacturer's instructions, and luminescence was read using a SpectraMax M5 plate reader.
pEC50: −log10 of the molar value.
Reported pEC50 values for the following compounds.
REPORTED_METRIC: pEC50

* N#Cc1ccc2c(c1)CN(C(=O)CCC(=O)c1ccccc1)[C@H](C(=O)N[C@@H](CCN)C(=O)Nc1ccc(Cl)c(Cl)c1F)C2 | 6.60 to 7.30
* CCN(CC(C)(C)C)C(=O)CCC(=O)N1Cc2ccccc2C[C@H]1C(=O)N[C@@H](CCN)C(=O)Nc1ccc(Cl)c(Cl)c1F | 6.60 to 7.30
* COc1cc(Cl)c(Cl)cc1NC(=O)[C@H](CCN)NC(=O)[C@@H]1Cc2ccccc2CN1C(=O)CCC(=O)c1ccccc1 | > 7.30
* NCCCC[C@H](NC(=O)[C@@H]1Cc2ccccc2CN1C(=O)CCC(=O)c1ccccc1)C(=O)Nc1ccccc1F | 6.30 to 6.60
* Cc1cc(NC(=O)[C@H](CCN)NC(=O)[C@@H]2Cc3ccccc3CN2C(=O)CCC(=O)N2C[C@@H](C)O[C@@H](C)C2)ccc1Cl | 6.60 to 7.30
* Cc1cc(NC(=O)[C@H](CCN)NC(=O)[C@@H]2Cc3ccccc3CN2C(=O)CCC(=O)N(C)CC(F)(F)F)ccc1Cl | 6.30 to 6.60
* Cc1cc(NC(=O)[C@H](CCN)NC(=O)[C@@H]2Cc3ccccc3CN2C(=O)CCC(=O)c2ccccc2)c(C#N)cc1Cl | > 7.30
* COc1ccc(C(=O)CCC(=O)N2Cc3ccccc3C[C@H]2C(=O)N[C@@H](CCCCN)C(=O)Nc2ccc(Cl)c(C)c2)cc1F | < 6.30
* NCC[C@H](NC(=O)[C@@H]1Cc2ccccc2CN1C(=O)CCC(=O)c1ccccc1)C(=O)Nc1cccc(Cl)c1F | > 7.30
* Cc1cc(NC(=O)[C@H](CCN)NC(=O)[C@@H]2Cc3ccccc3CN2C(=O)CCC(=O)Nc2ccccc2)ccc1Cl | > 7.30
* Cc1cc(NC(=O)[C@H](CCN)NC(=O)[C@@H]2Cc3ccccc3CN2C(=O)CCC(=O)N2CCC[C@H]2CF)ccc1Cl | > 7.30
* NCC[C@H](NC(=O)[C@@H]1Cc2ccccc2CN1C(=O)CCC(=O)c1ccccc1)C(=O)Nc1ccc(Cl)c(Cl)c1F | > 7.30
* NCC[C@H](NC(=O)[C@@H]1Cc2ccccc2CN1C(=O)CCC(=O)c1ccccc1)C(=O)Nc1ccc2c(c1)CCCC2 | > 7.30
* Cc1cccc(NC(=O)[C@H](CCN)NC(=O)[C@@H]2Cc3ccccc3CN2C(=O)CCC(=O)c2ccccc2)c1C | > 7.30
* NCC[C@H](NC(=O)[C@@H]1Cc2ccc(F)cc2CN1C(=O)CCC(=O)c1ccccc1)C(=O)Nc1ccc(Cl)c(Cl)c1F | > 7.30
* Cc1c(Cl)ccc(NC(=O)[C@H](CCN)NC(=O)[C@@H]2Cc3ccccc3CN2C(=O)CCC(=O)N2CCCC(C)(C)C2)c1Cl | > 7.30
* NCC[C@H](NC(=O)[C@@H]1Cc2ccccc2CN1C(=O)CCC(=O)N1CCCC12CCC2)C(=O)Nc1ccc(Cl)c(Cl)c1F | > 7.30
* CC1(C)CCCN(C(=O)CCC(=O)N2Cc3ccccc3C[C@H]2C(=O)NC2(C(=O)Nc3ccc(Cl)c(Cl)c3F)CCNCC2)C1 | > 7.30
* Cc1cc(NC(=O)[C@@H](CCN)NC(=O)[C@@H]2Cc3ccccc3CN2C(=O)CCC(=O)N2CCCOCC2)ccc1Cl | > 7.30
* Cc1cc(NC(=O)[C@H](CCNC2CC2)NC(=O)[C@@H]2Cc3ccccc3CN2C(=O)CCC(=O)c2ccccc2)ccc1Cl | > 7.30
* Cc1cc(NC(=O)[C@H](CCN)NC(=O)[C@@H]2Cc3ccccc3CN2C(=O)CCC(=O)c2ccccc2)c(Cl)cc1Cl | > 7.30
* Cc1cc(NC(=O)[C@H](CCN)NC(=O)[C@@H]2Cc3ccccc3CN2C(=O)CCC(=O)N2CCCCC2)ccc1Cl | > 7.30
* NCC[C@H](NC(=O)[C@@H]1Cc2ccccc2CN1C(=O)CCC(=O)N1CCCCCC1)C(=O)Nc1ccc(Cl)c(Cl)c1F | > 7.30
* Cc1cc(NC(=O)[C@H](CCN)NC(=O)[C@@H]2Cc3ccccc3CN2C(=O)CCC(=O)N2CCN(c3ccccc3)CC2)ccc1Cl | < 6.30
* CC1(C)CCCCN1C(=O)CCC(=O)N1Cc2ccc(F)cc2C[C@H]1C(=O)N[C@@H](CCN)C(=O)Nc1ccc(Cl)c(Cl)c1F | > 7.30
